Target: PIK3CA (human) (UniProt P42336)
Sequence (P42336 whole entry, looked up): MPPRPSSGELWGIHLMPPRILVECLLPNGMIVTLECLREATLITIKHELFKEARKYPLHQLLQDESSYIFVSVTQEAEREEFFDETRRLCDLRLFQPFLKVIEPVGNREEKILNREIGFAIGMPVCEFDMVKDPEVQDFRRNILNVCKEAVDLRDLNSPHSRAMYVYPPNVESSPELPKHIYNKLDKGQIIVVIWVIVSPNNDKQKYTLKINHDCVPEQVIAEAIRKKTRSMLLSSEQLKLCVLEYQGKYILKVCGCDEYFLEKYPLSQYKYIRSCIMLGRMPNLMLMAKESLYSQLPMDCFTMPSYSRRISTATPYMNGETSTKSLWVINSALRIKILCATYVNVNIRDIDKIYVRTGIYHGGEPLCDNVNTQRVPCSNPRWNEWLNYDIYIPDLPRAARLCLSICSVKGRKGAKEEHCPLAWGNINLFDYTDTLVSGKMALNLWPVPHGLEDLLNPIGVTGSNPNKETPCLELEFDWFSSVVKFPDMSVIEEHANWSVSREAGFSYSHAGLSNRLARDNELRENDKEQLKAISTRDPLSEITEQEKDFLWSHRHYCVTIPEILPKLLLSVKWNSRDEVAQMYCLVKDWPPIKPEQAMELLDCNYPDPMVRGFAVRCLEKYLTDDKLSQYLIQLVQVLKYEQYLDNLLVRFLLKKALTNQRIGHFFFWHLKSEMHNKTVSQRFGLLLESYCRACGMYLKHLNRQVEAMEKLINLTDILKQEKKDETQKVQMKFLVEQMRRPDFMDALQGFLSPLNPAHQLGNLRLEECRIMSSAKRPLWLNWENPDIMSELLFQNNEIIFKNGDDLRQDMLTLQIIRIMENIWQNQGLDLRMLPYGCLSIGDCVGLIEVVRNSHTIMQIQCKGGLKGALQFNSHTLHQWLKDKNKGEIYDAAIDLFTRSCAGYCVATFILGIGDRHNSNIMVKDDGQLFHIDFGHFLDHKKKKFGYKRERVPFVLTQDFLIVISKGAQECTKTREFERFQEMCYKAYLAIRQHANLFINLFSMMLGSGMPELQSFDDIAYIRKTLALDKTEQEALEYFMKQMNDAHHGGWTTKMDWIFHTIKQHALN
Assay: Cell-Based Assay
Conditions: rat-1
RECORDED ENDPOINT: IC50 (µM)

P: CO[C@H]1C[C@@H](c2nc3cccc(Cl)c3c(=O)n2C2CC2)N(c2nc(N)nc(C)c2C#N)C1
Q: Cc1nc(N)nc(N2C[C@@H](O)C[C@H]2c2nc3cccc(Cl)c3c(=O)n2-c2ccccc2)c1C#N
Select one: P or Q . Criterion: greater recorded IC50. Indicate your choice by writing its label.
P

* * *

Target: PIK3CD (Human) (UniProt O00329)
Sequence (O00329 whole entry, looked up): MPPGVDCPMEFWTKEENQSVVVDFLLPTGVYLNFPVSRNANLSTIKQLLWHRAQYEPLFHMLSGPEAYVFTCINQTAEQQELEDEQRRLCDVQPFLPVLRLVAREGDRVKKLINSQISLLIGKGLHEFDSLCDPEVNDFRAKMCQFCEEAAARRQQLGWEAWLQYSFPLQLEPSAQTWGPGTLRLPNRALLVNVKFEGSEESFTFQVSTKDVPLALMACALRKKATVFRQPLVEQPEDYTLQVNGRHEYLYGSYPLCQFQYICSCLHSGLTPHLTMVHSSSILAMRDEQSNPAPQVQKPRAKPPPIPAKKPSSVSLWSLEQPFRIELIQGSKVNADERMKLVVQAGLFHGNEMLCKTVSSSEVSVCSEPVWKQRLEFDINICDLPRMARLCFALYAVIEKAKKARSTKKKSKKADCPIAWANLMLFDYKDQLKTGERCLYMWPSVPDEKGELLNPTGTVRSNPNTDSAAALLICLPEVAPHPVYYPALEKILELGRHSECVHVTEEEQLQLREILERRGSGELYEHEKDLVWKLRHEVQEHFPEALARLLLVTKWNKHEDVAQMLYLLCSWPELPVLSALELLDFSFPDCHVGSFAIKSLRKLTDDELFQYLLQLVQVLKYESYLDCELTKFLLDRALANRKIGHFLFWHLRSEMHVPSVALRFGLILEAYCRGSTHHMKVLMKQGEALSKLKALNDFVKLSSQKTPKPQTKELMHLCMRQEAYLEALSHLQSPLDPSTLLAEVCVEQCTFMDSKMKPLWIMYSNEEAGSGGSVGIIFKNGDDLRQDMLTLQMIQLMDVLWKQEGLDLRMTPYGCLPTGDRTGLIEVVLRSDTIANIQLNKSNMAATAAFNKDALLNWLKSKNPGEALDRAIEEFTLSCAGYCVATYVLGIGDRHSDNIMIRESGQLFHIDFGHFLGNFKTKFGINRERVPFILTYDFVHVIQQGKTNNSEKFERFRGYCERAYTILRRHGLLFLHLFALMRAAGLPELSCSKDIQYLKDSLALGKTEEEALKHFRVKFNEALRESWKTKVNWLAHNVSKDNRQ
Assay: Cell-Based Assay
Conditions: rat-1
RECORDED ENDPOINT: IC50 (nM)

CO[C@H]1C[C@@H](c2nc3cccc(C(F)(F)F)c3c(=O)n2N2CCOCC2)N(c2ncnc(N)c2C#N)C1 = 117

P: CO[C@H]1C[C@@H](c2nc3cccc(C(F)(F)F)c3c(=O)n2-c2ccccc2)N(c2ncnc(N)c2C#N)C1
Q: COC(=O)N1CC[C@@H](n2c([C@@H]3CCCN3c3ncnc4[nH]cnc34)nc3cccc(Cl)c3c2=O)C1
Looking at recorded values for IC50, does P or Q come in lower? Indicate your choice by writing its label.
P
(P: 35 nM, Q: 2350 nM)

I: Nc1nc(N2CCC[C@H]2c2nc3cccc(Cl)c3c(=O)n2N2CCOCC2)c2nc[nH]c2n1
II: Nc1nc(N2CCC[C@H]2c2nc3cccc(Cl)c3c(=O)n2N2CCOCC2)c2nccn2n1
Looking at recorded values for IC50, does I or II come in lower? Indicate your choice by writing its label.
I
(I: 65 nM, II: 130 nM)

P: O=c1c2c(Cl)cccc2nc([C@@H]2CCCN2c2ncnn3ccnc23)n1-c1ccccc1
Q: N#Cc1c(N)ncnc1N1C[C@@H](O)C[C@H]1c1nc2cccc(C(F)(F)F)c2c(=O)n1-c1cccc(F)c1
Select one: P or Q . Criterion: greater recorded IC50. Indicate your choice by writing its label.
P
(P: 56 nM, Q: 29 nM)
